EXPERIMENT NOTES: Plasma concentration of LY-354740 in rats after oral administration of compound at a dose of 5 mg equiv 1/kg at 0.5 hr
Type: ADME
SETUP CONDITIONS: rat
API: label(entry) gives criterion met if the entry's Plasma concentration is strictly smaller than 2000 ng/mL; on equality or larger values it gives criterion not met.

Field: example entries. Status: answers known.
- COMPOUND: "CC(C)C[C@H](NC(=O)[C@]1(NC(=O)[C@H](C)N)CCC2C1[C@H]2C(=O)O)C(=O)O (stereo partly drawn)"
  CLASS: "criterion met"
- COMPOUND: "Cl.N[C@@H](Cc1ccc(O)cc1)C(=O)N[C@@]1(C(=O)O)CC[C@H]2[C@H](C(=O)O)[C@H]21"
  CLASS: "criterion met"
- COMPOUND: "CC(C)C[C@H](N)C(=O)N[C@@]1(C(=O)O)CC[C@H]2[C@H](C(=O)O)[C@H]21.Cl"
  CLASS: "criterion not met"
- COMPOUND: "CSCC[C@H](NC(=O)[C@]1(N)CC[C@H]2[C@H](C(=O)O)[C@H]21)C(=O)O"
  CLASS: "criterion met"
- COMPOUND: "CC(C)[C@H](N)C(=O)N[C@@]1(C(=O)O)CC[C@H]2[C@H](C(=O)O)[C@H]21.Cl"
  CLASS: "criterion not met"
- COMPOUND: "CC[C@H](C)[C@H](NC(=O)[C@]1(N)CC[C@H]2[C@H](C(=O)O)[C@H]21)C(=O)O"
  CLASS: "criterion met"

Next:
Asked: Please state whether Plasma concentration is below 2000 ng/mL for `N[C@@]1(C(=O)NCC(=O)O)CC[C@H]2[C@H](C(=O)O)[C@H]21`
Given back: criterion met

====

Please respond with reported Plasma concentration for every item in the list.
EXPERIMENT NOTES: Plasma concentration of LY-354740 in rats after oral administration of compound at a dose of 5 mg equiv 1/kg at 1 hr
Type: ADME
SETUP CONDITIONS: rat
One number for each entry, in ng/mL.

- MOLECULE: "CC(C)C[C@H](NC(=O)[C@]1(N)CC[C@H]2[C@H](C(=O)O)[C@H]21)C(=O)O"
  Plasma concentration (ng/mL): 798
- MOLECULE: "Cl.O=C(O)[C@H]1[C@@H]2CC[C@@](NC(=O)[C@@H]3CCCN3)(C(=O)O)[C@@H]21"
  Plasma concentration (ng/mL): 455
- MOLECULE: "Cl.N[C@@H](Cc1ccccc1)C(=O)N[C@@]1(C(=O)O)CC[C@H]2[C@H](C(=O)O)[C@H]21"
  Plasma concentration (ng/mL): 2763
- MOLECULE: "CC[C@H](C)[C@H](NC(=O)[C@]1(N)CC[C@H]2[C@H](C(=O)O)[C@H]21)C(=O)O"
  Plasma concentration (ng/mL): 34

Below is a list of molecules. For each, state its recorded Plasma concentration.
1. C[C@H](N)C(=O)N[C@@H](C)C(=O)N[C@@]1(C(=O)O)CC[C@H]2[C@H](C(=O)O)[C@H]21.Cl
2. CC(C)C[C@@H](N)C(=O)N[C@@]1(C(=O)O)CC[C@H]2[C@H](C(=O)O)[C@H]21.Cl
3. CC(C)[C@H](N)C(=O)N[C@@]1(C(=O)O)CC[C@H]2[C@H](C(=O)O)[C@H]21.Cl
4. CC(C)[C@H](NC(=O)[C@]1(N)CC[C@H]2[C@H](C(=O)O)[C@H]21)C(=O)O
5. CC(C)C[C@H](N)C(=O)N[C@@]1(C(=O)O)CC[C@H]2[C@H](C(=O)O)[C@H]21.Cl
6. C[C@@H](N)C(=O)N[C@@]1(C(=O)O)CC[C@H]2[C@H](C(=O)O)[C@H]21.Cl
7. CC(C)C[C@H](NC(=O)[C@]1(NC(=O)[C@H](C)N)CCC2C1[C@H]2C(=O)O)C(=O)O (some centres not stated)
8. CC[C@H](C)[C@H](N)C(=O)N[C@@]1(C(=O)O)CC[C@H]2[C@H](C(=O)O)[C@H]21.Cl

Given back:
1554
894
2124
17
4323
191
26
1457

Can you give me Plasma concentration for all of these, one by one?
1. CSCC[C@H](NC(=O)[C@]1(N)CC[C@H]2[C@H](C(=O)O)[C@H]21)C(=O)O
2. Cl.NCCCC[C@H](N)C(=O)N[C@@]1(C(=O)O)CC[C@H]2[C@H](C(=O)O)[C@H]21

Given back:
1: 808; 2: 147

Each molecule below has a recorded value; state its Plasma concentration.
1. Cl.N[C@@H](CO)C(=O)N[C@@]1(C(=O)O)CC[C@H]2[C@H](C(=O)O)[C@H]21
2. Cl.N[C@@H](Cc1ccc(O)cc1)C(=O)N[C@@]1(C(=O)O)CC[C@H]2[C@H](C(=O)O)[C@H]21
3. C[C@H](N)C(=O)N[C@@]1(C(=O)O)CC[C@H]2[C@H](C(=O)O)[C@H]21.Cl [TALAGLUMETAD HYDROCHLORIDE]

Given back:
1365
2163
3381
